Test system: hiPSC-derived neurons co-cultured with human primary astrocytes in 2D
procedure summary: Ca2+ transient oscillation assay (FDSS), 2D co-culture
Assay type: cell-based
recorded conditions: Homo sapiens, 1 h; 3.33 µM; 60 min; read-out: Peak-to-peak interval - 2D Mean
Values of activation at 3.33 µM greater than or equal to 10% map to MET; values below map to NOT MET.

Before answering, review these 2 worked examples.
compound="CC(=O)Nc1ccc(O)cc1 [Acetaminophen]" label="NOT MET"
compound="CC(NC(C)(C)C)C(=O)c1cccc(Cl)c1 (stereo not drawn) [Bupropion]" label=MET

Now let's try a different one.
Is activation at 3.33 µM for CCN(CC)CCCC(C)Nc1c2ccc(Cl)cc2nc2ccc(OC)cc12 (stereo not drawn) [Quinacrine, quinacrine] at or above 10%? MET
